Numbers sourced from ChEMBL document CHEMBL1131241.

assay: Bioavailability as maximal plasma concentration in dogs after 2.5 mg/kg oral dose; assay type: ADME, organism-based, Canis lupus familiaris; design: dose 2.5 mg/kg, route oral; details: dog
PARAMETER_MEASURED: Cmax (nM)
Field format: number, assumed nM, no unit text.

**Query** Give reported Cmax value for "Nc1cccc(CN2C(=O)N(Cc3cccc(-c4cc[nH]n4)c3)[C@H](Cc3ccccc3)[C@H](O)[C@@H](O)[C@H]2Cc2ccccc2)c1"
**Result** 850

---

Quick list: CC50 per entry.
system: MT2; test: Cytotoxicity was determined by 50% reduction in the number of viable MT2 cells with HIV-1RF; type: functional; conditions: Homo sapiens, read-out: TC50 (the source's name)
Field format: number, assumed µM, no unit text.

>  <STRUCTURE_SMILES>
O=C(NCCN1CCOCC1)c1cccc(CN2C(=O)N(Cc3cccc(-c4cc[nH]n4)c3)[C@H](Cc3ccccc3)[C@H](O)[C@@H](O)[C@H]2Cc2ccccc2)c1

>  <MEASUREMENT_UNITS>
µM

>  <REPORTED_MEASUREMENT>
43

$$$$
>  <STRUCTURE_SMILES>
O=C1N(Cc2cccc(C(=O)C(F)(F)F)c2)[C@H](Cc2ccccc2)[C@H](O)[C@@H](O)[C@@H](Cc2ccccc2)N1Cc1cccc(C(=O)C(F)(F)F)c1

>  <MEASUREMENT_UNITS>
µM

>  <REPORTED_MEASUREMENT>
5.4

$$$$
>  <STRUCTURE_SMILES>
O=C1N[C@H](Cc2ccccc2)[C@H](O)[C@@H](O)[C@@H](Cc2ccccc2)N1Cc1cccc(-c2cc[nH]n2)c1

>  <MEASUREMENT_UNITS>
µM

>  <REPORTED_MEASUREMENT>
21

$$$$
>  <STRUCTURE_SMILES>
O=C1N(Cc2cccc(-c3cc[nH]n3)c2)[C@H](Cc2ccccc2)[C@H](O)[C@@H](O)[C@@H](Cc2ccccc2)N1Cc1cccc(-c2cc[nH]n2)c1

>  <MEASUREMENT_UNITS>
µM

>  <REPORTED_MEASUREMENT>
4.2

$$$$
>  <STRUCTURE_SMILES>
CCC/C(=N/O)c1cccc(CN2C(=O)N(Cc3cccc(/C(CCC)=N/O)c3)[C@H](Cc3ccccc3)[C@H](O)[C@@H](O)[C@H]2Cc2ccccc2)c1

>  <MEASUREMENT_UNITS>
µM

>  <REPORTED_MEASUREMENT>
3.7

$$$$

**Query** Give reported CC50 value for "O=C1N(Cc2cccc(-c3c[nH]nn3)c2)[C@H](Cc2ccccc2)[C@H](O)[C@@H](O)[C@@H](Cc2ccccc2)N1Cc1cccc(-c2c[nH]nn2)c1"
**Result** 47

**Query** Give reported CC50 value for "O=C1N(Cc2cccc(-c3ncc[nH]3)c2)[C@H](Cc2ccccc2)[C@H](O)[C@@H](O)[C@@H](Cc2ccccc2)N1Cc1cccc(-c2ncc[nH]2)c1"
**Result** 78

**Query** Give reported CC50 value for "O=C1N(Cc2cccc(/C(=N/O)C(F)(F)F)c2)[C@H](Cc2ccccc2)[C@H](O)[C@@H](O)[C@@H](Cc2ccccc2)N1Cc1cccc(/C(=N\O)C(F)(F)F)c1"
**Result** 14

**Query** Give reported CC50 value for "CC(=O)c1cccc(CN2C(=O)N(Cc3cccc(C(C)=O)c3)[C@H](Cc3ccccc3)[C@H](O)[C@@H](O)[C@H]2Cc2ccccc2)c1"
**Result** 20

**Query** Give reported CC50 value for "O=C1N(Cc2cccnc2)[C@H](Cc2ccccc2)[C@H](O)[C@@H](O)[C@@H](Cc2ccccc2)N1Cc1cccc(-c2cc[nH]n2)c1"
**Result** 6.3

**Query** Give reported CC50 value for "COC(=O)c1cccc(CN2C(=O)N(Cc3cccc(-c4cc[nH]n4)c3)[C@H](Cc3ccccc3)[C@H](O)[C@@H](O)[C@H]2Cc2ccccc2)c1"
**Result** 5.7

**Query** Give reported CC50 value for "Nc1cccc(CN2C(=O)N(Cc3cccc(-c4cc[nH]n4)c3)[C@H](Cc3ccccc3)[C@H](O)[C@@H](O)[C@H]2Cc2ccccc2)c1"
**Result** 6.8

**Query** Give reported CC50 value for "O=C1N(Cc2cccc(CO)c2)[C@H](Cc2ccccc2)[C@H](O)[C@@H](O)[C@@H](Cc2ccccc2)N1Cc1cccc(-c2cc[nH]n2)c1"
**Result** 20

**Query** Give reported CC50 value for "O=C1N(Cc2ccc(O)cc2)[C@H](Cc2ccccc2)[C@H](O)[C@@H](O)[C@@H](Cc2ccccc2)N1Cc1cccc(-c2cc[nH]n2)c1"
**Result** 4.8

**Query** Give reported CC50 value for "C/C(=N/O)c1cccc(CN2C(=O)N(Cc3cccc(/C(C)=N/O)c3)[C@H](Cc3ccccc3)[C@H](O)[C@@H](O)[C@H]2Cc2ccccc2)c1"
**Result** 81

**Query** Give reported CC50 value for "O=C1N(Cc2cccc(-c3cn[nH]c3)c2)[C@H](Cc2ccccc2)[C@H](O)[C@@H](O)[C@@H](Cc2ccccc2)N1Cc1cccc(-c2cn[nH]c2)c1"
**Result** 1.4

**Query** Give reported CC50 value for "O=C1N(Cc2cccc(-c3nnn[nH]3)c2)[C@H](Cc2ccccc2)[C@H](O)[C@@H](O)[C@@H](Cc2ccccc2)N1Cc1cccc(-c2nnn[nH]2)c1"
**Result** 78

**Query** Give reported CC50 value for "O=C1N(Cc2cccc(/C=N\O)c2)[C@H](Cc2ccccc2)[C@H](O)[C@@H](O)[C@@H](Cc2ccccc2)N1Cc1cccc(/C=N/O)c1"
**Result** 16

**Query** Give reported CC50 value for "O=Cc1cccc(CN2C(=O)N(Cc3cccc(C=O)c3)[C@H](Cc3ccccc3)[C@H](O)[C@@H](O)[C@H]2Cc2ccccc2)c1"
**Result** 19

---

Quick list: log10(Ki) per entry.
target: Human immunodeficiency virus type 1 protease (Human immunodeficiency virus 1, UniProt Q72874)
Values are log10 of Ki in nM.

Worked cases, answers included:
>  <STRUCTURE_SMILES>
O=C1N(Cc2cccc(-c3nnn[nH]3)c2)[C@H](Cc2ccccc2)[C@H](O)[C@@H](O)[C@@H](Cc2ccccc2)N1Cc1cccc(-c2nnn[nH]2)c1

>  <log10(Ki)>
0.82

$$$$
>  <STRUCTURE_SMILES>
CCCC(=O)c1cccc(CN2C(=O)N(Cc3cccc(C(=O)CCC)c3)[C@H](Cc3ccccc3)[C@H](O)[C@@H](O)[C@H]2Cc2ccccc2)c1

>  <log10(Ki)>
0.15

$$$$
>  <STRUCTURE_SMILES>
CC(=O)c1cccc(CN2C(=O)N(Cc3cccc(C(C)=O)c3)[C@H](Cc3ccccc3)[C@H](O)[C@@H](O)[C@H]2Cc2ccccc2)c1

>  <log10(Ki)>
-1.22

$$$$

**Query** Give reported log10(Ki) value for "O=C1N(Cc2cccc(-c3ncc[nH]3)c2)[C@H](Cc2ccccc2)[C@H](O)[C@@H](O)[C@@H](Cc2ccccc2)N1Cc1cccc(-c2ncc[nH]2)c1"
**Result** -0.80

**Query** Give reported log10(Ki) value for "CC/C(=N/O)c1cccc(CN2C(=O)N(Cc3cccc(/C(CC)=N/O)c3)[C@H](Cc3ccccc3)[C@H](O)[C@@H](O)[C@H]2Cc2ccccc2)c1"
**Result** -1.51

**Query** Give reported log10(Ki) value for "COC(=O)c1cccc(CN2C(=O)N(Cc3cccc(-c4cc[nH]n4)c3)[C@H](Cc3ccccc3)[C@H](O)[C@@H](O)[C@H]2Cc2ccccc2)c1"
**Result** -0.85

**Query** Give reported log10(Ki) value for "O=C1N(Cc2cccc(-c3nc[nH]n3)c2)[C@H](Cc2ccccc2)[C@H](O)[C@@H](O)[C@@H](Cc2ccccc2)N1Cc1cccc(-c2nc[nH]n2)c1"
**Result** -1.28

**Query** Give reported log10(Ki) value for "O=C1N(Cc2cccc(/C(=N/O)C(F)(F)F)c2)[C@H](Cc2ccccc2)[C@H](O)[C@@H](O)[C@@H](Cc2ccccc2)N1Cc1cccc(/C(=N\O)C(F)(F)F)c1"
**Result** 0.59

**Query** Give reported log10(Ki) value for "O=C1N(Cc2cccnc2)[C@H](Cc2ccccc2)[C@H](O)[C@@H](O)[C@@H](Cc2ccccc2)N1Cc1cccc(-c2cc[nH]n2)c1"
**Result** -0.77

---

biological target: Human immunodeficiency virus type 1 protease (Human immunodeficiency virus 1)
PARAMETER_MEASURED: pKi
When answering, recall that pKi equals minus log10 of the concentration in mol/L, and write that number alone.

Worked cases, answers included:
>  <STRUCTURE_SMILES>
CCC(=O)c1cccc(CN2C(=O)N(Cc3cccc(C(=O)CC)c3)[C@H](Cc3ccccc3)[C@H](O)[C@@H](O)[C@H]2Cc2ccccc2)c1

>  <pKi>
9.68

$$$$
>  <STRUCTURE_SMILES>
O=C1N(Cc2cccc(-c3cn[nH]c3)c2)[C@H](Cc2ccccc2)[C@H](O)[C@@H](O)[C@@H](Cc2ccccc2)N1Cc1cccc(-c2cn[nH]c2)c1

>  <pKi>
9.21

$$$$
>  <STRUCTURE_SMILES>
CCC/C(=N/O)c1cccc(CN2C(=O)N(Cc3cccc(/C(CCC)=N/O)c3)[C@H](Cc3ccccc3)[C@H](O)[C@@H](O)[C@H]2Cc2ccccc2)c1

>  <pKi>
10.51

$$$$

**Query** // fetch pKi; item: "CC(C)(C)C(=O)c1cccc(CN2C(=O)N(Cc3cccc(C(=O)C(C)(C)C)c3)[C@H](Cc3ccccc3)[C@H](O)[C@@H](O)[C@H]2Cc2ccccc2)c1" ; system: Human immunodeficiency virus type 1 protease (Human immunodeficiency virus 1)
**Result** 8.44

**Query** // fetch pKi; item: "O=C1N(Cc2ccc(O)cc2)[C@H](Cc2ccccc2)[C@H](O)[C@@H](O)[C@@H](Cc2ccccc2)N1Cc1cccc(-c2cc[nH]n2)c1" ; system: Human immunodeficiency virus type 1 protease (Human immunodeficiency virus 1)
**Result** 10.68

**Query** // fetch pKi; item: "O=C1N(Cc2cccc(/C=N\O)c2)[C@H](Cc2ccccc2)[C@H](O)[C@@H](O)[C@@H](Cc2ccccc2)N1Cc1cccc(/C=N/O)c1" ; system: Human immunodeficiency virus type 1 protease (Human immunodeficiency virus 1)
**Result** 11.00

**Query** // fetch pKi; item: "O=C1N(Cc2cccc(CO)c2)[C@H](Cc2ccccc2)[C@H](O)[C@@H](O)[C@@H](Cc2ccccc2)N1Cc1cccc(-c2cc[nH]n2)c1" ; system: Human immunodeficiency virus type 1 protease (Human immunodeficiency virus 1)
**Result** 9.80

**Query** // fetch pKi; item: "O=C1N(Cc2cccc(-c3c[nH]cn3)c2)[C@H](Cc2ccccc2)[C@H](O)[C@@H](O)[C@@H](Cc2ccccc2)N1Cc1cccc(-c2c[nH]cn2)c1" ; system: Human immunodeficiency virus type 1 protease (Human immunodeficiency virus 1)
**Result** 9.72

**Query** // fetch pKi; item: "O=Cc1cccc(CN2C(=O)N(Cc3cccc(C=O)c3)[C@H](Cc3ccccc3)[C@H](O)[C@@H](O)[C@H]2Cc2ccccc2)c1" ; system: Human immunodeficiency virus type 1 protease (Human immunodeficiency virus 1)
**Result** 9.36

**Query** // fetch pKi; item: "O=C(NCCN1CCOCC1)c1cccc(CN2C(=O)N(Cc3cccc(-c4cc[nH]n4)c3)[C@H](Cc3ccccc3)[C@H](O)[C@@H](O)[C@H]2Cc2ccccc2)c1" ; system: Human immunodeficiency virus type 1 protease (Human immunodeficiency virus 1)
**Result** 10.28

**Query** // fetch pKi; item: "O=C1N[C@H](Cc2ccccc2)[C@H](O)[C@@H](O)[C@@H](Cc2ccccc2)N1Cc1cccc(-c2cc[nH]n2)c1" ; system: Human immunodeficiency virus type 1 protease (Human immunodeficiency virus 1)
**Result** 9.59

**Query** // fetch pKi; item: "Nc1cccc(CN2C(=O)N(Cc3cccc(-c4cc[nH]n4)c3)[C@H](Cc3ccccc3)[C@H](O)[C@@H](O)[C@H]2Cc2ccccc2)c1" ; system: Human immunodeficiency virus type 1 protease (Human immunodeficiency virus 1)
**Result** 10.46

**Query** // fetch pKi; item: "O=C1N(Cc2cccc(-c3c[nH]nn3)c2)[C@H](Cc2ccccc2)[C@H](O)[C@@H](O)[C@@H](Cc2ccccc2)N1Cc1cccc(-c2c[nH]nn2)c1" ; system: Human immunodeficiency virus type 1 protease (Human immunodeficiency virus 1)
**Result** 9.77
